This listing pairs compounds with measured Retention_time.
Run Description: Retention time of the compound by PDA chromatography
Format: physicochemical
Measured Endpoint: Retention_time

COc1cc([C@@H]2c3cc4c(cc3C[C@H]3COC(=O)[C@@H]32)OCO4)cc(OC)c1OC [DESOXYPODOPHYLLOTOXIN] : 1.15 min
COc1ccc([C@@H]2CC(=O)c3c(O)cc(O)cc3O2)cc1O [HESPERETIN] : 0.87 min
COc1cc(O)c2c(c1)OC(c1ccc(O)c(O)c1)CC2=O (stereo not given) : 0.98 min
CC1=c2cc3c(cc2C(=O)OC1(C)C)=C(C)C(C)(C)OC3=O : 0.92 min
COc1cc([C@@H]2CC(=O)c3c(O)cc(O)cc3O2)ccc1O [HOMOERIODICTYOL] : 0.85 min

====

Run Description: Retention time of the compound by ELSD chromatography
Type: physicochemical
Retention_time listing for selected compounds.
Measured Endpoint: Retention_time (min)

COc1cc([C@@H]2CC(=O)c3c(O)cc(O)cc3O2)ccc1O : 0.89
COc1cc(O)c2c(c1)OC(c1ccc(O)c(O)c1)CC2=O (configuration not stated) : 1.02
COc1ccc([C@@H]2CC(=O)c3c(O)cc(O)cc3O2)cc1O : 0.91
COc1cc([C@@H]2c3cc4c(cc3C[C@H]3COC(=O)[C@@H]32)OCO4)cc(OC)c1OC : 1.18
CC1=c2cc3c(cc2C(=O)OC1(C)C)=C(C)C(C)(C)OC3=O : 0.9
COc1cc(C[C@H]2C(=O)OC[C@@H]2Cc2ccc3c(c2)OCO3)cc(OC)c1OC : 1.2
C=C1CC[C@@H]2[C@](C)(CCC[C@]2(C)C(=O)O)[C@H]1CCC(C)(O)C(O)CO (mixture of isomers) : 0.92
